biological target: human DGKζ (Homo sapiens (Human), UniProt Q13574); assay: DGKζ assay (detergent/lipid micelle substrate); format: biochemical; conditions: detergent/lipid micelle substrate; read-out: DGKζ IC50
Sequence (Q13574 other isoform, or with tags, fused parts or gaps): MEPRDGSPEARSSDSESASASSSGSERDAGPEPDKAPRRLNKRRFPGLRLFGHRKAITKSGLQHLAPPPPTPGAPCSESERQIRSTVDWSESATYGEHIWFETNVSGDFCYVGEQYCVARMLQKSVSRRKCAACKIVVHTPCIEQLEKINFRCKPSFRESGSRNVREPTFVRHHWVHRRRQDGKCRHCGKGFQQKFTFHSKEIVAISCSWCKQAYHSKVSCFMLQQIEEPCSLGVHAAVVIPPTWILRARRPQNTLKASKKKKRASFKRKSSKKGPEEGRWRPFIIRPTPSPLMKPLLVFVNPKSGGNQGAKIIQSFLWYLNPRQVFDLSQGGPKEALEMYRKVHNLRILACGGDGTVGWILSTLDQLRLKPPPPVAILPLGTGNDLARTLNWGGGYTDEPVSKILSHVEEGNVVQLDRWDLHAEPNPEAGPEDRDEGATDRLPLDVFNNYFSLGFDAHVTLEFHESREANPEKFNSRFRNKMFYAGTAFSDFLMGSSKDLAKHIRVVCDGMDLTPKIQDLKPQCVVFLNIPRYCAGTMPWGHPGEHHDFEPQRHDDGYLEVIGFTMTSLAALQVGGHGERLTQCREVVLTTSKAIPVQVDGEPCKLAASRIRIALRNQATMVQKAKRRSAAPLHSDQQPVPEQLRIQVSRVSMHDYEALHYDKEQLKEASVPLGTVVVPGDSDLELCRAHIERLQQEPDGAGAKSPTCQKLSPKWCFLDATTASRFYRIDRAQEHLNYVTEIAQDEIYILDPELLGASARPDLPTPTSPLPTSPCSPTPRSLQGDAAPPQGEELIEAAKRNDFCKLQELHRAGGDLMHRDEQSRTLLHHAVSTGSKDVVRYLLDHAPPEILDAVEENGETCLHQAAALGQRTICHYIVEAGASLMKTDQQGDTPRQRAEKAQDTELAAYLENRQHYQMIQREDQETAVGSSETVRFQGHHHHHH
Recorded measurements of IC50, one per entry

Item Smiles | System | Comparison Sign | IC50 / µM
Cn1c(=O)c(C#N)c(N2CCN(Cc3ccc(O)c(Cl)c3)CC2)c2nc(Cl)ccc21 | human DGKζ (Homo sapiens (Human), UniProt Q13574) | > | 240
Cc1ccccc1CN1CCN(c2c(C#N)c(=O)n(C)c3ccc(Cl)nc23)CC1 | human DGKζ (Homo sapiens (Human), UniProt Q13574) | > | 240
COc1cccc(Cl)c1CN1CCN(c2c(C#N)c(=O)n(C)c3ccc(Cl)nc23)CC1 | human DGKζ (Homo sapiens (Human), UniProt Q13574) | = | 190
Cn1c(=O)c(C#N)c(N2CCN(Cc3cccc(F)c3F)CC2)c2nc(Cl)ccc21 | human DGKζ (Homo sapiens (Human), UniProt Q13574) | > | 240
Cn1c(=O)c(C#N)c(N2CCN(Cc3cccc(F)c3O)CC2)c2nc(Br)ccc21 | human DGKζ (Homo sapiens (Human), UniProt Q13574) | = | 68
Cn1c(=O)c(C#N)c(N2CCN(Cc3cc(F)cc(C(F)(F)F)c3)CC2)c2nc(Cl)ccc21 | human DGKζ (Homo sapiens (Human), UniProt Q13574) | > | 81
Cn1c(=O)c(C#N)c(N2CCN(Cc3ccccc3O)CC2)c2nc(Cl)ccc21 | human DGKζ (Homo sapiens (Human), UniProt Q13574) | = | 150
C#CCn1c(=O)c([N+](=O)[O-])c(N2CCN(C(c3ccc(F)cc3)c3ccc(F)cc3)CC2)c2nc(C#N)ccc21 | human DGKζ (Homo sapiens (Human), UniProt Q13574) | = | 0.23
